Molecular target: P. falciparum apicoplast DNA polymerase (Pf-apPOL) (Plasmodium falciparum)
Assay: Fluorescence-based high-throughput DNA polymerase assay (molecular beacon), primary screen and dose-response
Assay type: biochemical
Settings: DRC-1; concentration 10; 90'
quantity: % inhibition Apol 90' (%)

1. CCOc1ccc2cc(C3=NN(C(=O)CCC(=O)O)C(c4ccc(C)cc4)C3)c(=O)[nH]c2c1 (centres unmarked) | 2.997
2. Oc1cccnc1/N=C/c1cc(I)cc(I)c1O | 35.5541
3. COc1cc(/C=C2\C(=O)N(c3ccc(C(=O)O)cc3)N=C2C(F)(F)F)ccc1OCC(C)C | 33.8794
4. Nc1ncnc(NC2CCCCC2)c1[N+](=O)[O-] | 18.3925
5. COc1ccc(C=C2Oc3c(ccc4c3CN(Cc3ccco3)CO4)C2=O)c(OC)c1 | 29.7292
6. O=C1c2ccccc2C(=O)c2c1oc1c3c(ccc21)OCN(C1CCCC1)C3 | 43.2395
7. COc1ccc(NC(=O)Cn2nc3c(cc2=O)CCC3)cc1Cl | 78
8. Cc1ccc(C2=N/C(=C\c3ccc(I)o3)C(=O)O2)cc1[N+](=O)[O-] | 27.25
9. CCc1ccccc1NC(=O)c1ccc(-c2ncccc2NC(C)=O)cc1 | 22.2992
10. CCCN1COc2ccc3c(=O)c(-c4ccccc4)coc3c2C1 | 22.7546
11. O=[N+]([O-])c1ccc(SCc2ccco2)c2cccnc12 | 36.0729
12. Cc1ccnc(NS(=O)(=O)c2ccc(-n3cccc3)cc2)n1 | 23.2373
13. O=C(O)c1cc([N+](=O)[O-])c(N2CCN(c3cccc(C(F)(F)F)c3)CC2)c([N+](=O)[O-])c1 | 12.0526
14. Cc1cc(C)nc(Nc2nc(CC(=O)Nc3nc(-c4ccco4)cs3)cs2)n1 | 43.4607
15. O=C(Cc1cccs1)N1CCN(c2nc(CN3CCOCC3)cs2)CC1 | 34
16. O=C(Nc1c2c(nn1-c1ccccc1)CSC2)c1ccco1 | 43.2893
17. CCCCCc1c2c(cc(O)c1C(=O)O)OC(=O)c1c(cc(OC)cc1C(=O)CCCC)O2 | 38.7515
18. O=C(Cn1ccc2c(=O)[nH]ccc21)Nc1ccccc1Cl [Molecule 19, O=C(Cn1ccc2c1cc[nH]c2=O)Nc1ccccc1Cl] | 71.2049
19. COc1ccc(-c2occ(C(=O)O)c2C(=O)O)cc1 | 39.5848
20. O=C(O)c1nc(-c2ccccc2)nc2c1OCO2 | 22.6615

---

Target: P. falciparum apicoplast DNA polymerase (Pf-apPOL) (Plasmodium falciparum, UniProt Q8ILY1)
Sequence (Q8ILY1 entry or part of it): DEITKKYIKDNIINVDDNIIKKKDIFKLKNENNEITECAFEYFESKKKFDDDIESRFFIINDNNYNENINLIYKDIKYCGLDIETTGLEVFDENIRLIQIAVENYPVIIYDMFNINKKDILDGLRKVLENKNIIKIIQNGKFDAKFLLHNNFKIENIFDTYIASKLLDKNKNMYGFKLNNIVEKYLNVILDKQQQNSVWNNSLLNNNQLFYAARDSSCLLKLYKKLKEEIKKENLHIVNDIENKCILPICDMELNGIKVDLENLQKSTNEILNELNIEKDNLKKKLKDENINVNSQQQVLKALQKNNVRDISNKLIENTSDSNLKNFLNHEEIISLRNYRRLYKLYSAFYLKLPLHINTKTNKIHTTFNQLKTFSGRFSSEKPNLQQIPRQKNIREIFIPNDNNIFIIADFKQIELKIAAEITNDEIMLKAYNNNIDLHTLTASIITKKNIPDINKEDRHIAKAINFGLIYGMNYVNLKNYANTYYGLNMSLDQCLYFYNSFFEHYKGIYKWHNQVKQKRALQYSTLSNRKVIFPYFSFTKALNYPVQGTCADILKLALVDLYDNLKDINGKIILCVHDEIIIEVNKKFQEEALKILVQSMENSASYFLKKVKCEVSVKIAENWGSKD
Assay: Fluorescence-based high-throughput DNA polymerase assay (molecular beacon), primary screen and dose-response
Type: biochemical
Details: DRC-2; concentration 80; 5'
Classification field: Met = % inhibition Apo pol 5' at or over 50%; Not met = % inhibition Apo pol 5' under 50%.

1. Cc1cc(C)nc(Nc2nc(CC(=O)Nc3nc(-c4ccco4)cs3)cs2)n1 | Not met
2. Oc1cccnc1/N=C/c1cc(I)cc(I)c1O | Met
3. Cc1ccnc(NS(=O)(=O)c2ccc(-n3cccc3)cc2)n1 | Not met
4. O=C(O)c1nc(-c2ccccc2)nc2c1OCO2 | Met
5. Nc1ncnc(NC2CCCCC2)c1[N+](=O)[O-] | Met
